Molecular target: Sodium-dependent serotonin transporter (Homo sapiens)
Sequence (P31645 whole entry): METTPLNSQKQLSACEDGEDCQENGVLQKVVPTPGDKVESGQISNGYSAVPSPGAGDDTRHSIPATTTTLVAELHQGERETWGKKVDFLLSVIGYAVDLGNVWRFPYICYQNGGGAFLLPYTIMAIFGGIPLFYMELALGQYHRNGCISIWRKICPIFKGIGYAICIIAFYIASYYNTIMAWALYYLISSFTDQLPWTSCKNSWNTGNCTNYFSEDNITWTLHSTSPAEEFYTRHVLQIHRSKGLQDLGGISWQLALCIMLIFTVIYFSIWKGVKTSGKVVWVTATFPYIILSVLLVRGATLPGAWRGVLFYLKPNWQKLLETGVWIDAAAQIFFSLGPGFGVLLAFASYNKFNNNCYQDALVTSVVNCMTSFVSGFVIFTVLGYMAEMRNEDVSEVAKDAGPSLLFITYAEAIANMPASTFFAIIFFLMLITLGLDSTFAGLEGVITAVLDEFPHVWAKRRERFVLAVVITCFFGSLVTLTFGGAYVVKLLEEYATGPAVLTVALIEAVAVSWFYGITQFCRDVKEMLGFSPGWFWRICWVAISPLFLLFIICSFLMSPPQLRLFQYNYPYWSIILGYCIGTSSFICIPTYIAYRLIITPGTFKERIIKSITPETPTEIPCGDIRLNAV
pKi: −log10 of the molar value.
recorded_metric: pKi

Solved cases (2 shown):
Clc1ccc(Oc2ncccc2C2CCNCC2)c(Cl)c1	8.57
Fc1ccc(Cl)c(Oc2ncccc2C2CCNCC2)c1	6.60

1 = Cc1ccc(Oc2ncccc2C2CCNCC2)c(F)c1
2 = FC(F)(F)c1ccccc1Oc1ncccc1C1CCNCC1
3 = COc1ccccc1Oc1ncccc1C1CCNCC1
Returns the items ordered by pKi, from maximum to minimum. I'd appreciate it if you listed the labels in the requested order.
1, 2, 3

P = Fc1ccc(Oc2ncccc2C2CCNCC2)c(F)c1
Q = Fc1ccccc1Oc1ncccc1C1CCNCC1
Task for the reader: decide whether P or Q has the larger pKi. In your reply, give the label of the chosen option.
P
